Target: T1, truncated hTfR1 of SEQ ID NO:122 (human, UniProt P02786 122-760)
T1 construct: also called human TfR1; Human TfR1
T1 sequence (P02786 other isoform, or with tags, fused parts or gaps limits assumed): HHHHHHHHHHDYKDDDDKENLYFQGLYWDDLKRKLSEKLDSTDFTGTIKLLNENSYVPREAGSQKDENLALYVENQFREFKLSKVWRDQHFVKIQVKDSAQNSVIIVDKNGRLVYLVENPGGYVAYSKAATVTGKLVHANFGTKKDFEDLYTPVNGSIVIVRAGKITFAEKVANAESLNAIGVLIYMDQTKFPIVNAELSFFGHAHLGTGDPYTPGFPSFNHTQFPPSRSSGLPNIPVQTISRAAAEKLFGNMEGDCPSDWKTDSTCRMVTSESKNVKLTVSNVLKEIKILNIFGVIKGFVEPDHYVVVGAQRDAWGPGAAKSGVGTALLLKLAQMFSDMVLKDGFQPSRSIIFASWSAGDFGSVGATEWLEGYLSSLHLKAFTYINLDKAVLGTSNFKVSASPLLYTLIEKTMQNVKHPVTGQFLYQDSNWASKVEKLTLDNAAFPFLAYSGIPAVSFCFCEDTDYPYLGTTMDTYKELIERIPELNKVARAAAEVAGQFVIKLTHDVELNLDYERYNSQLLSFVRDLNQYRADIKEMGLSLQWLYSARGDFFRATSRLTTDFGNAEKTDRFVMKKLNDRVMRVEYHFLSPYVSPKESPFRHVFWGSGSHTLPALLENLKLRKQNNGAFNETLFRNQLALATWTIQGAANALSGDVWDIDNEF
Test: SPR follow-up, 4 replicates, FLAG-captured hTfR1, scFv injected

binder	kon, M⁻¹ s⁻¹
h26D3-HC6_DS, VL-first (scFv) scFv: DIQMTQSPSSVSASVGDRVTITCKSSQSLLYSTNQKNYLAWYQQKPGKAPKLLIYWASTRESGVPSRFSGSGSGTDFTLTISSLQPEDFATYYCQQYFIYPRTFGCGTKVEIKGGGGSGGGGSGGGGSGGGGSEVQLVQSGAEVKKPGSSVKVSCKASGYIFTDYNMDWVRQAPGQCLEWIGDINPDADTTSYNEKFKGRATLTVDKSTSTAYMELSSLRSEDTAVYYCARGGYSGSSYYHPMDYWGQGTLVTVSS	67100
h26D3 HC6 DS T91S S122K (scFv, also called h26D3 DS T91S S122K) scFv: HHHHHHGGGGSGGGGSGGGGSGGGGSDIQMTQSPSSVSASVGDRVTITCKSSQSLLYSTNQKNYLAWYQQKPGKAPKLLIYWASTRESGVPSRFSGSGSGTDFTLTISSLQPEDFATYYCQQYFIYPRTFGCGTKVEIKGGGGSGGGGSGGGGSGGGGSEVQLVQSGAEVKKPGSSVKVSCKASGYIFTDYNMDWVRQAPGQCLEWIGDINPDADTTSYNEKFKGRATLTVDKSTSTAYMELSSLRSEDSAVYYCARGGYSGSSYYHPMDYWGQGTLVTVKS	67000
